Reference for the values: paper PMC6154579

TARGET_OR_SYSTEM: mushroom tyrosinase (Agaricus bisporus, UniProt C7FF04)
Construct: purchased Sigma-Aldrich
Sequence (C7FF04 1-392 limits assumed): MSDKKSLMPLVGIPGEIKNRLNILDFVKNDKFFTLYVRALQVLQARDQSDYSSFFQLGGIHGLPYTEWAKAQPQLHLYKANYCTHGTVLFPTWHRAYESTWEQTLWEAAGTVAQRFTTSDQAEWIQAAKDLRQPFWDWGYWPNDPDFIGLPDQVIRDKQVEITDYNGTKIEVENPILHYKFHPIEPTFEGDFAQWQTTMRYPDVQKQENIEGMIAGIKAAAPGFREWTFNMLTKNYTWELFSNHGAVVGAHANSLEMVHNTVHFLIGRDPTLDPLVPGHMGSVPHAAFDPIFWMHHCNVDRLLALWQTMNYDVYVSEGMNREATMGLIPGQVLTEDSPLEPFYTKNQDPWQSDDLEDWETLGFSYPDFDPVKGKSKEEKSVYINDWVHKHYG
MEASUREMENT_PROTOCOL: Tyrosinase inhibition assay (oxidation of L-DOPA, diphenolase activity)
Format: biochemical
MEASUREMENT_CONDITIONS: compound at 300 μM; two independent experiments; read-out: Tyrosinase Inhibition % ± STD (300 μM)
MEASURED_PROPERTY: inhibition at 300 µM (%)
Numbers only, in %.

// known answers, use as guide
# COMPOUND, TEST_RESULT
data = [
    ("Oc1cccc(CCc2ccc(O)cc2O)c1 [2,4,3′-Trihydroxydihydrostilbene (7), 2,4,3′-Trihydroxydihydrostilbene]", 97.8),
    ("Oc1cccc(O)c1", 60.4),
    ("Oc1cc(O)cc(-c2cc3ccc(O)cc3o2)c1", 87.2),
]

// for each compound in input: emit inhibition at 300 µM
1. O=C1c2c(O)cc(O)cc2OC(c2ccc(O)cc2O)C1O (stereo not drawn) [trans-Dihydromorin (6), trans-dihydromorin]
2. CC(C)=CCc1c(-c2ccc(O)cc2O)oc2c3c(cc(O)c2c1=O)OC(C)(C)C=C3
3. CC(C)=CCc1c(-c2ccc(O)cc2O)oc2c(CC=C(C)C)c(O)cc(O)c2c1=O

1. 94.3
2. 49.9
3. 75.6

---

So I've got a bunch of molecules here, and I need their inhibition at 60 µM values.
TARGET_OR_SYSTEM: mushroom tyrosinase (Agaricus bisporus)
Construct: purchased Sigma-Aldrich
MEASUREMENT_PROTOCOL: Tyrosinase inhibition assay (oxidation of L-DOPA, diphenolase activity)
Format: biochemical
MEASUREMENT_CONDITIONS: compound at 60 μM; two independent experiments; read-out: Tyrosinase Inhibition % ± STD (60 μM)
Numbers only, in %.

// known answers, use as guide
# MOLECULE, RESULT_UNIT, inhibition at 60 µM
measured = [
    ("Oc1cccc(O)c1", "%", 38),
    ("CC(C)=CCc1c(O)ccc(C(=O)C2C(c3c(O)cc(O)c4c(=O)c(CC=C(C)C)c(-c5ccc(O)cc5O)oc34)C=C(C)CC2c2ccc(O)cc2O)c1O (centres unmarked)", "%", 46),
]

// for each molecule in input: emit inhibition at 60 µM
1. OC[C@H]1O[C@@H](Oc2cc(O)cc(/C=C/c3ccc(O[C@@H]4O[C@H](CO)[C@@H](O)[C@H](O)[C@H]4O)cc3O)c2)[C@H](O)[C@@H](O)[C@@H]1O [Mulberroside A (3), mulberroside A]
2. CC(C)=CCc1c(-c2ccc(O)cc2O)oc2c3c(cc(O)c2c1=O)OC(C)(C)C=C3
3. CC(C)=CCc1c(-c2ccc(O)cc2O)oc2c(CC=C(C)C)c(O)cc(O)c2c1=O

43.1
31
46.5

---

TARGET_OR_SYSTEM: mushroom tyrosinase (Agaricus bisporus)
Construct: purchased Sigma-Aldrich
MEASUREMENT_PROTOCOL: Tyrosinase inhibition assay (oxidation of L-DOPA, diphenolase activity);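 note: dopachrome formation from L-DOPA by mushroom tyrosinase in phosphate buffer, compound preincubated with enzyme 10 min at 25 °C, inhibition versus sample-free control, enzyme-free blanks subtracted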
Type: biochemical
pIC50: −log10 of the molar value.
# binarize pIC50: threshold 4 inclusive, high side rule met, low side rule not met

# MOLECULE, LABEL
data = [
    ("Oc1cc(O)cc(-c2cc3ccc(O)cc3o2)c1", "rule met"),
]

Would you say Oc1cc(O)cc(CCc2ccc(O)cc2O)c1 [Dihydrooxyresveratrol (5), Dihydrooxyresveratrol] shows pIC50 at minimum 4?
rule met

Would you say OC[C@H]1O[C@@H](Oc2cc(O)cc(/C=C/c3ccc(O[C@@H]4O[C@H](CO)[C@@H](O)[C@H](O)[C@H]4O)cc3O)c2)[C@H](O)[C@@H](O)[C@@H]1O [Mulberroside A (3), mulberroside A] shows pIC50 at minimum 4?
rule not met

Would you say "CC(C)=CCc1c(-c2ccc(O)cc2O)oc2c(CC=C(C)C)c(O)cc(O)c2c1=O" shows pIC50 at minimum 4?
rule met

Would you say "CC(C)=CCc1c(-c2ccc(O)cc2O)oc2c3c(cc(O)c2c1=O)OC(C)(C)C=C3" shows pIC50 at minimum 4?
rule not met

Would you say CC(C)=CCc1c(O)ccc(C(=O)C2C(c3c(O)cc(O)c4c(=O)c(CC=C(C)C)c(-c5ccc(O)cc5O)oc34)C=C(C)CC2c2ccc(O)cc2O)c1O (centres unmarked) shows pIC50 at minimum 4?
rule not met

Would you say CC(C)=CCc1c(-c2ccc(O)cc2O)oc2c(C3C=C(C)CC(c4ccc(O)cc4O)C3C(=O)c3ccc(O)cc3O)c(O)cc(O)c2c1=O (centres unmarked) shows pIC50 at minimum 4?
rule met

Would you say "Oc1cccc(O)c1" shows pIC50 at minimum 4?
rule not met
